biological target: human F508del CFTR (Homo sapiens, UniProt P13569, DEL508-508); construct: expressed in transfected cells; host or cells: Fisher Rat Thyroid (FRT) cells; experiment: CFTR-YFP High Throughput Assay; assay type: cell-based; conditions: EMax normalized to the positive control; FRT cells expressing human F508del CFTR and YFP; read-out: % Efficacy
Sequence (P13569 with tags, fused parts or gaps DEL508-508): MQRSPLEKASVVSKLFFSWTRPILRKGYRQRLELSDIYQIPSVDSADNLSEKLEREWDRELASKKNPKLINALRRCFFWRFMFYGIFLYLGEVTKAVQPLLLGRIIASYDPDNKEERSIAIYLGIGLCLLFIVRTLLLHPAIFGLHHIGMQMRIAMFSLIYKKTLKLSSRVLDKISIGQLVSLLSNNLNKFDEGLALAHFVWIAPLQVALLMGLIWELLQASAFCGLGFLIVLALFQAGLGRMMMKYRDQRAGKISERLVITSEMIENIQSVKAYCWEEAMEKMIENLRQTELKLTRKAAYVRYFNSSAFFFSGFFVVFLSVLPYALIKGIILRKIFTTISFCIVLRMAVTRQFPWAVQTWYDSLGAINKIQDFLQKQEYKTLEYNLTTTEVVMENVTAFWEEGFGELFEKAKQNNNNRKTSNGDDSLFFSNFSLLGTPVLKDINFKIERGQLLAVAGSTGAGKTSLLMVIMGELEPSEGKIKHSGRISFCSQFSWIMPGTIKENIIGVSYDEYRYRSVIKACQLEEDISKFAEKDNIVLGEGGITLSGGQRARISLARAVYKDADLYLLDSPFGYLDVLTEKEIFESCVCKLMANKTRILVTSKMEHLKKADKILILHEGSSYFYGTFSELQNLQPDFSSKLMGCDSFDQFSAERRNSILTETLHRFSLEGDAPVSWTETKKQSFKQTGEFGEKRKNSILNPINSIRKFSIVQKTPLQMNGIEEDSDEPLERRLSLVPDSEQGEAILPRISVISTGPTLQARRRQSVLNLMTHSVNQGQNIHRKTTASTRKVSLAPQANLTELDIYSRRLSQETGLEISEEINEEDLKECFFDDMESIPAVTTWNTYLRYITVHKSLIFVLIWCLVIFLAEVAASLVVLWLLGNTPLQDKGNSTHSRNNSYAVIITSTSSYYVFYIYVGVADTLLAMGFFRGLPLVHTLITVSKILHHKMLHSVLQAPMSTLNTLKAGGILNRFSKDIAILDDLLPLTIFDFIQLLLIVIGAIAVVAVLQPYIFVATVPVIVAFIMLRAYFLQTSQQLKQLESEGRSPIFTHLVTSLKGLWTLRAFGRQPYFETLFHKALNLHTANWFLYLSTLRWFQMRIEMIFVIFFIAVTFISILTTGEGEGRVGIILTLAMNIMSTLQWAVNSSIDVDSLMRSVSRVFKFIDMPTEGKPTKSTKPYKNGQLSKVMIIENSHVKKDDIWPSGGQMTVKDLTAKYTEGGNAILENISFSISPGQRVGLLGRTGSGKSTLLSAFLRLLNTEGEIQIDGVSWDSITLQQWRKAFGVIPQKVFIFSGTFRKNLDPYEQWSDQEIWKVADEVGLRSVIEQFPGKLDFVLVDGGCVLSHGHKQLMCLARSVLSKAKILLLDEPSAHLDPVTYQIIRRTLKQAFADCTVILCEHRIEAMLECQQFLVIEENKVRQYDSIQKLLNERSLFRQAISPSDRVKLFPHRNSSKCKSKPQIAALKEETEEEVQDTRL
metric: Emax

Lab note: need Emax with human F508del CFTR (Homo sapiens, UniProt P13569, DEL508-508) for entry CCN(C(=O)c1nn(-c2ccc(C(F)(F)F)cn2)c(=O)c2c1c1ccccc1n2C)c1ccccc1 [Example 193] , please look it up.
30 to 80%

Lab note: need Emax with human F508del CFTR (Homo sapiens, UniProt P13569, DEL508-508) for entry CCN(C(=O)c1nn(-c2ccc(C)cn2)c(=O)c2c1c1ccccc1n2C)c1ccccc1 [Example 180] , please look it up.
10 to 30%

Lab note: need Emax with human F508del CFTR (Homo sapiens, UniProt P13569, DEL508-508) for entry CCN(C(=O)Cn1ncc2c(c1=O)c1ccccc1n2Cc1ccccc1C#N)c1ccc2c(c1)OC(F)(F)O2 [Example 141] , please look it up.
30 to 80%

Lab note: need Emax with human F508del CFTR (Homo sapiens, UniProt P13569, DEL508-508) for entry CCN(C(=O)Cn1nc(-c2ccc(C(=O)O)cc2)c2ccccc2c1=O)c1ccc2c(c1)OC(F)(F)O2 [Example 20] , please look it up.
30 to 80%

Lab note: need Emax with human F508del CFTR (Homo sapiens, UniProt P13569, DEL508-508) for entry CCc1ccc(N(CC)C(=O)Cn2nc(Cc3cccnc3)c3cccc(C)c3c2=O)cc1 [Example 30] , please look it up.
30 to 80%

Lab note: need Emax with human F508del CFTR (Homo sapiens, UniProt P13569, DEL508-508) for entry Cc1ccc(-n2nc(C(=O)N(c3ccccc3)C3CC3)c3c4ccccc4n(C)c3c2=O)cc1 [Example 153] , please look it up.
30 to 80%

Lab note: need Emax with human F508del CFTR (Homo sapiens, UniProt P13569, DEL508-508) for entry COc1ccc2c(-c3ccc(S(N)(=O)=O)cc3)nn(CC(=O)N(C)c3ccc4c(c3)OC(F)(F)O4)c(=O)c2c1 [Example 71] , please look it up.
30 to 80%

Lab note: need Emax with human F508del CFTR (Homo sapiens, UniProt P13569, DEL508-508) for entry CCN(C(=O)c1nn(-c2ccc(C)cc2)c(=O)c2c1c1ccccc1n2CC#N)c1ccccc1 [Example 223] , please look it up.
30 to 80%

Lab note: need Emax with human F508del CFTR (Homo sapiens, UniProt P13569, DEL508-508) for entry CCN(C(=O)Cn1nc(-c2cccc(C#N)c2)c2ccc(O)cc2c1=O)c1ccc2c(c1)OC(F)(F)O2 [Example 103] , please look it up.
> 80%

Lab note: need Emax with human F508del CFTR (Homo sapiens, UniProt P13569, DEL508-508) for entry CN(C(=O)Cn1nc(-c2cccc(C#N)c2)c2ccc(O)cc2c1=O)c1ccc2c(c1)OC(F)(F)O2 [Example 102] , please look it up.
> 80%

Lab note: need Emax with human F508del CFTR (Homo sapiens, UniProt P13569, DEL508-508) for entry CCN(CC)C(=O)c1nn(CC(O)COCc2ccccc2)c(=O)c2c1c1c(OC)cccc1n2C (stereo not shown) [Example 231] , please look it up.
30 to 80%

Lab note: need Emax with human F508del CFTR (Homo sapiens, UniProt P13569, DEL508-508) for entry CCN(C(=O)c1nn(-c2ccc(C)cc2)c(=O)c2c1c1ccccc1n2C)c1cc(Cl)ccc1C(=O)O [Example 183] , please look it up.
30 to 80%

Lab note: need Emax with human F508del CFTR (Homo sapiens, UniProt P13569, DEL508-508) for entry CCN(C(=O)c1nn(-c2ccc(C)cc2)c(=O)c2c1c1ccccc1n2C)c1ccc2c(c1)OC(F)(F)O2 [Example 182] , please look it up.
30 to 80%

Lab note: need Emax with human F508del CFTR (Homo sapiens, UniProt P13569, DEL508-508) for entry COc1ccc2c(c1)c1c(=O)n(CC(=O)N(C)c3ccc4nc(C)oc4c3)ncc1n2Cc1ccc(F)cc1 [Example 260] , please look it up.
> 80%

Lab note: need Emax with human F508del CFTR (Homo sapiens, UniProt P13569, DEL508-508) for entry COc1ccc2c(-c3cccc(Cl)c3)nn(CC(=O)C3(c4ccc5c(c4)OC(F)(F)O5)CC3)c(=O)c2c1 [Example 249] , please look it up.
> 80%

Lab note: need Emax with human F508del CFTR (Homo sapiens, UniProt P13569, DEL508-508) for entry CCN(C(=O)c1nn(CC(C)(C)C)c(=O)c2c1c1ccccc1n2C)c1ccccc1 [Example 217] , please look it up.
10 to 30%

Lab note: need Emax with human F508del CFTR (Homo sapiens, UniProt P13569, DEL508-508) for entry CCN(C(=O)c1nn(-c2ccc(OC)cc2)c(=O)c2c1c1ccccc1n2C)c1ccccc1 [Example 179] , please look it up.
30 to 80%

Lab note: need Emax with human F508del CFTR (Homo sapiens, UniProt P13569, DEL508-508) for entry CCN(C(=O)c1nn(-c2ccc(C)cc2)c(=O)c2c1c1sc(C)cc1n2C)c1ccccc1F [Example 247] , please look it up.
30 to 80%

Lab note: need Emax with human F508del CFTR (Homo sapiens, UniProt P13569, DEL508-508) for entry Cc1ccc(-n2nc(C(=O)N(CC(=O)O)c3ccccc3)c3c4ccccc4n(C)c3c2=O)cc1 [Example 163] , please look it up.
30 to 80%

Lab note: need Emax with human F508del CFTR (Homo sapiens, UniProt P13569, DEL508-508) for entry CCN(C(=O)c1nn(C)c(=O)c2c1c1ccccc1n2C)c1ccccc1 [Example 207] , please look it up.
30 to 80%

Lab note: need Emax with human F508del CFTR (Homo sapiens, UniProt P13569, DEL508-508) for entry CCc1ccc(N(CC)C(=O)Cn2nc(-c3ccncc3)c3ccccc3c2=O)cc1 [Example 4] , please look it up.
30 to 80%

Lab note: need Emax with human F508del CFTR (Homo sapiens, UniProt P13569, DEL508-508) for entry CCN(C(=O)c1nn(C(C)C)c(=O)c2c1c1ccccc1n2C)c1cc(Cl)ccc1C#N [Example 205] , please look it up.
30 to 80%

Lab note: need Emax with human F508del CFTR (Homo sapiens, UniProt P13569, DEL508-508) for entry CC(C)n1nc(-c2cccc(C#N)c2)c2c3ccccc3n(C)c2c1=O [Example 240] , please look it up.
30 to 80%

Lab note: need Emax with human F508del CFTR (Homo sapiens, UniProt P13569, DEL508-508) for entry CC(C)N(C(=O)c1nn(Cc2ccccc2)c(=O)c2c1c1ccccc1n2C)c1ccccc1 [Example 212] , please look it up.
30 to 80%

Lab note: need Emax with human F508del CFTR (Homo sapiens, UniProt P13569, DEL508-508) for entry CCN(C(=O)Cn1nc(-c2ccc(S(N)(=O)=O)cc2)c2ccc(OC)cc2c1=O)c1ccc(OC(F)F)cc1 [Example 73] , please look it up.
30 to 80%

Lab note: need Emax with human F508del CFTR (Homo sapiens, UniProt P13569, DEL508-508) for entry CCc1ccc(N(CC)C(=O)Cn2nc(-c3cccc(C(N)=O)c3)c3ccccc3c2=O)cc1 [Example 11] , please look it up.
30 to 80%

Lab note: need Emax with human F508del CFTR (Homo sapiens, UniProt P13569, DEL508-508) for entry CCc1ccc(N(CC)C(=O)Cn2nc(-c3ccc(S(C)(=O)=O)cc3)c3ccccc3c2=O)cc1 [Example 16] , please look it up.
30 to 80%

Lab note: need Emax with human F508del CFTR (Homo sapiens, UniProt P13569, DEL508-508) for entry Cc1ccc(-n2nc(C(=O)N(c3ccccc3)C(C)C)c3c4ccccc4n(C)c3c2=O)cc1 [Example 152] , please look it up.
30 to 80%

Lab note: need Emax with human F508del CFTR (Homo sapiens, UniProt P13569, DEL508-508) for entry COc1ccc(C2(C(=O)Cn3nc(-c4cccc(Cl)c4)c4ccc(OC)cc4c3=O)CC2)cc1 [Example 251] , please look it up.
30 to 80%

Lab note: need Emax with human F508del CFTR (Homo sapiens, UniProt P13569, DEL508-508) for entry CCN(C(=O)c1nn(CC(=O)N2CCOCC2)c(=O)c2c1c1ccccc1n2C)c1ccccc1 [Example 215] , please look it up.
30 to 80%

Lab note: need Emax with human F508del CFTR (Homo sapiens, UniProt P13569, DEL508-508) for entry CCN(C(=O)c1nn(-c2nc3ccccc3s2)c(=O)c2c1c1ccccc1n2C)c1ccccc1 [Example 172] , please look it up.
10 to 30%
